Test description: in vivo
Protocol conditions: Artemia salina (brine shrimp), in vivo, LC50 (brine shrimp lethality), Artemia salina
Measure name: LC50 (µM)
Provide the reading as a plain figure in µM.

Task: Param item = Cc1cc(O)cc(Oc2cc(C)cc(O)c2O)c1 ; retrieve measured LC50.
Output: 126

Task: // query LC50 value for entry COc1cc(C)cc(Oc2cc(C)cc(O)c2)c1
Output: 41

Task: Request the reported LC50 associated with COc1cc(C)cc(Oc2cc(C)cc(OC)c2O)c1O
Output: 172

Task: Fill blank: measured LC50 of the compound COc1cc(C)cc(Oc2cc(C)cc(OC)c2OC)c1O is ____.
Output: 164

Task: Entry under review: Cc1cc(O)cc(Oc2cc(C)cc(O)c2)c1 . Reported LC50?
Output: 126
